pIC50 data for PAF receptor (human platelet membrane preparation) (Homo sapiens) follow.
pIC50: −log10 of the molar value.
ASSAY_METRIC: pIC50

>  <COMPOUND>
COc1cc(C(=O)N(C(C)C)C2CCCCC2)ccc1Cn1cccc2nc(-c3ccccn3)nc1-2

>  <TEST_VALUE>
6.14

$$$$
>  <COMPOUND>
COc1cc(C(=O)N(C2CCCC2)C2CCCC2)ccc1Cn1cccc2ncnc1-2

>  <TEST_VALUE>
5.98

$$$$
>  <COMPOUND>
COc1cc(Cn2cccc3ncnc2-3)ccc1C(=O)N(C1CCCC1)C1CC(C)CC(C)C1 (stereo not shown)

>  <TEST_VALUE>
6.86

$$$$
>  <COMPOUND>
CC(C)N(C(=O)c1ccc(Cn2cccc3ncnc2-3)cc1)C1CCCCC1

>  <TEST_VALUE>
6.07

$$$$
